Assignment: determine reported MFI for the given binders.
# target or system: monkey DLL3 on CHO-K1-cyno DLL3 cells (cynomolgus monkey)
# Sequence (chain, as listed by the source limits assumed): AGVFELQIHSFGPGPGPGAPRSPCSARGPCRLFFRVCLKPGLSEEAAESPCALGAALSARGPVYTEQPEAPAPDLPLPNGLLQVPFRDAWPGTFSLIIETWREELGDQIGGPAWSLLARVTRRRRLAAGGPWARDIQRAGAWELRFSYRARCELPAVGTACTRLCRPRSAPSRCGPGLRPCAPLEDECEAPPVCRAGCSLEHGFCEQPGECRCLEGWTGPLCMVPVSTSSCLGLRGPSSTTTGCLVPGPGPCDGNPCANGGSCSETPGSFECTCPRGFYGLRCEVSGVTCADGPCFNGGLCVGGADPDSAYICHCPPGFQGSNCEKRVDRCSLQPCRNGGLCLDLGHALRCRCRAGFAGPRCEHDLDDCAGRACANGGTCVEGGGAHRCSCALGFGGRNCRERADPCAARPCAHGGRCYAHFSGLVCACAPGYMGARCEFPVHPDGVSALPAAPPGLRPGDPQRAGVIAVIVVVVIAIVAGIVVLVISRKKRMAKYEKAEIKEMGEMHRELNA
# procedure summary: FACS, CHO-K1-cyno DLL3 cells, 0.032 nM antibody
# do not omit the unit; it follows the number

Could you share which MFI value was measured for Hab008L1H2a-hFc (scFv, part only; not given: VL-VH linker and human IgG1 Fc, V domains shown, not shown: another chain or arm of the molecule; a dimerising Fc or GST; small tags and cut ends) VL: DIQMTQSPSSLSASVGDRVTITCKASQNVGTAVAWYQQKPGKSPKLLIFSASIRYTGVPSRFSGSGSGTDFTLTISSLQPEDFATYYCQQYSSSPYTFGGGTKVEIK VH: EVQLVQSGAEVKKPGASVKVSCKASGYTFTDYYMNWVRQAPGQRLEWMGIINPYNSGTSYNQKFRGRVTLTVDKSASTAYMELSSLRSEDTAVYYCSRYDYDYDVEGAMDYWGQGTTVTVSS ?
511 MFI

Recorded MFI of Hab009VL2aVH1-hFc (scFv, part only; not given: VL-VH linker and human IgG1 Fc, V domains shown, not shown: another chain or arm of the molecule; a dimerising Fc or GST; small tags and cut ends) VL: DIVMTQSPLSLPVTPGEPASISCRASQTISDYLHWYLQKPGQSPRLLIKYASQSISGVPDRFSGSGSGTDFTLKISRVEAEDVGVYYCQQGHSFPLTFGQGTKLEIK VH: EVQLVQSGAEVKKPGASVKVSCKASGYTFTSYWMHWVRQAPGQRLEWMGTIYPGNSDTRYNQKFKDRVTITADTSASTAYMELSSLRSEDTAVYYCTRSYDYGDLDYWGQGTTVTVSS , please.
5450 MFI

Fill blank: measured MFI of the binder Hab015VL5VH5a-hFc (scFv, part only; not given: scFv linker and human IgG1 Fc, V domains shown, not shown: another chain or arm of the molecule; a dimerising Fc or GST; small tags and cut ends) VL: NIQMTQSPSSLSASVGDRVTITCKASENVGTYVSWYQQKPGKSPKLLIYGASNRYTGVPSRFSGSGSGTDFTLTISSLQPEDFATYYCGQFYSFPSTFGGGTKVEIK VH: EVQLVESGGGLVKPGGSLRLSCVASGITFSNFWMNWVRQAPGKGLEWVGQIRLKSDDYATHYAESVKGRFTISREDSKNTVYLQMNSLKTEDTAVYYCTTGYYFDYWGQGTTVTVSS is ____.
428 MFI
